# System: NCI-H2170
# Assay Comment: relative viability (nuclei count vs DMSO), 5 days (fraction); higher = more cells survive
# Measurement Setup: first compound 0.8 µM

Compound: Cc1cnc(-c2cnc(NCCNc3ccc(C#N)cn3)nc2-c2ccc(Cl)cc2Cl)[nH]1 + C[C@@H](Oc1cc(-c2cnn(C3CCNCC3)c2)cnc1N)c1c(Cl)ccc(F)c1Cl [Crizotinib] (partner 1 µM)
relative viability: 1.26

Compound: O=c1[nH]c2ccccc2n1C1CCN(CCCC(c2ccc(F)cc2)c2ccc(F)cc2)CC1 [Pimozide] + NC(=O)Nc1cc(-c2cccc(F)c2)sc1C(=O)N[C@H]1CCCNC1 [AZD7762] (partner 0.2 µM)
relative viability: 0.85

Compound: Cc1cnc(-c2cnc(NCCNc3ccc(C#N)cn3)nc2-c2ccc(Cl)cc2Cl)[nH]1 + CS(=O)(=O)N1CCN(Cc2cc3nc(-c4cccc5[nH]ncc45)nc(N4CCOCC4)c3s2)CC1 [Pictilisib] (partner 1 µM)
relative viability: 0.261

Compound: Cc1cnc(-c2cnc(NCCNc3ccc(C#N)cn3)nc2-c2ccc(Cl)cc2Cl)[nH]1 + O=C(CCCCCCC(=O)Nc1ccccc1)NO [Vorinostat] (partner 1 µM)
relative viability: 0.734

Compound: Cc1cnc(-c2cnc(NCCNc3ccc(C#N)cn3)nc2-c2ccc(Cl)cc2Cl)[nH]1 + COc1cccc2cc(-c3nc([C@H]4CC[C@H](C(=O)O)CC4)n4ncnc(N)c34)[nH]c12 [OSI-027] (partner 0.5 µM)
relative viability: 0.705

* * *

The reader will find reported relative viability values listed item by item below.
# System: COR-L23
# Assay Comment: relative viability (nuclei count vs DMSO), 5 days (fraction); higher = more cells survive
# Measurement Setup: first compound 2.53 µM

Compound: O=c1[nH]c2ccccc2n1C1CCN(CCCC(c2ccc(F)cc2)c2ccc(F)cc2)CC1 [Pimozide] + O=C(c1cc(Cc2n[nH]c(=O)c3ccccc23)ccc1F)N1CCN(C(=O)C2CC2)CC1 [Olaparib] (partner 8 µM)
relative viability: 0.383

Compound: Cc1cnc(-c2cnc(NCCNc3ccc(C#N)cn3)nc2-c2ccc(Cl)cc2Cl)[nH]1 + C[C@]1(O)C[C@@H](c2nc(-c3ccc4ccc(-c5ccccc5)nc4c3)c3c(N)nccn32)C1 [Linsitinib] (partner 1 µM)
relative viability: 0.962

Compound: O=c1[nH]c2ccccc2n1C1CCN(CCCC(c2ccc(F)cc2)c2ccc(F)cc2)CC1 [Pimozide] + Cc1nc(NC(=O)N2CCC[C@H]2C(N)=O)sc1-c1ccnc(C(C)(C)C(F)(F)F)c1 [Alpelisib] (partner 2 µM)
relative viability: 0.74

Compound: O=c1[nH]c2ccccc2n1C1CCN(CCCC(c2ccc(F)cc2)c2ccc(F)cc2)CC1 [Pimozide] + Cc1nc(Nc2ncc(C(=O)Nc3c(C)cccc3Cl)s2)cc(N2CCN(CCO)CC2)n1 [Dasatinib] (partner 0.075 µM)
relative viability: 0.49

Compound: O=c1[nH]c2ccccc2n1C1CCN(CCCC(c2ccc(F)cc2)c2ccc(F)cc2)CC1 [Pimozide] + Cc1cc(Nc2cc(N3CCN(C)CC3)nc(Sc3ccc(NC(=O)C4CC4)cc3)n2)n[nH]1 [Tozasertib] (partner 0.1 µM)
relative viability: 0.153

Compound: O=c1[nH]c2ccccc2n1C1CCN(CCCC(c2ccc(F)cc2)c2ccc(F)cc2)CC1 [Pimozide] + CCNC(=O)c1noc(-c2cc(C(C)C)c(O)cc2O)c1-c1ccc(CN2CCOCC2)cc1 [Luminespib] (partner 0.01 µM)
relative viability: 0.61

Compound: O=c1[nH]c2ccccc2n1C1CCN(CCCC(c2ccc(F)cc2)c2ccc(F)cc2)CC1 [Pimozide] + CC(=O)c1c(C)c2cnc(Nc3ccc(N4CCNCC4)cn3)nc2n(C2CCCC2)c1=O [Palbociclib] (partner 0.5 µM)
relative viability: 0.267

Compound: O=c1[nH]c2ccccc2n1C1CCN(CCCC(c2ccc(F)cc2)c2ccc(F)cc2)CC1 [Pimozide] + CS(=O)(=O)N1CCN(Cc2cc3nc(-c4cccc5[nH]ncc45)nc(N4CCOCC4)c3s2)CC1 [Pictilisib] (partner 1 µM)
relative viability: 0.702

Compound: Cc1cnc(-c2cnc(NCCNc3ccc(C#N)cn3)nc2-c2ccc(Cl)cc2Cl)[nH]1 + Cc1nc(Nc2ncc(C(=O)Nc3c(C)cccc3Cl)s2)cc(N2CCN(CCO)CC2)n1 [Dasatinib] (partner 0.075 µM)
relative viability: 0.5

Compound: O=c1[nH]c2ccccc2n1C1CCN(CCCC(c2ccc(F)cc2)c2ccc(F)cc2)CC1 [Pimozide] + Nc1ncn([C@H]2C[C@H](O)[C@@H](CO)O2)c(=O)n1 [Decitabine] (partner 2 µM)
relative viability: 0.424
